Tested on: WM3928 cells
ASSAY_COMMENT: WM3928 Cell Proliferation Assay (1)
Type: cell-based
Please respond with reported IC50 for every item in the list.

Look up IC50 for the entries below, preserving their order.
1. Cc1ccc(NC(=O)c2ccnc(C(C)(C)C#N)c2)cc1-c1ccnc(-c2ccnc(NC(=O)CC#N)c2)c1
2. Cc1ccc(NC(=O)c2cn(C(C)C)nn2)cc1-c1cc(-c2ccnc(NC(=O)C3CC3)c2)cnn1
3. Cc1ccc(NC(=O)c2ccnc(C(C)(C)C#N)c2)cc1-c1cc(-c2ccnc(NC(=O)C3CC3)c2)cnn1
4. CNC(=O)c1cc(-c2ccnc(-c3cc(NC(=O)c4ccnc(C(C)(C)F)c4)ccc3C)c2)ccn1

Solution:
["≤ 100 nM", "1000 to 10000 nM", "≤ 100 nM", "100 to 500 nM"]

Look up IC50 for the entries below, preserving their order.
1. Cc1ccc(NC(=O)c2ccnc(C(C)(C)F)c2)cc1-c1cc(-c2ccnc(NC(=O)C3CC3)c2)cnn1
2. Cc1ccc(NC(=O)c2ccnc(C3CC3)c2)cc1-c1cncc(-c2cc(NC(=O)C3CC3)ncn2)c1
3. CNC(=O)c1cc(-c2ccnc(-c3cc(NC(=O)c4ccnc(C(C)(C)C#N)c4)c(F)cc3C)n2)ccn1

Solution:
1. ≤ 100 nM
2. ≤ 100 nM
3. 100 to 500 nM

* * *

Test system: Miapaca-2 cells
ASSAY_COMMENT: MiaPaca-2 Combination Cell proliferation Assay (1) with cobimetinib
Assay type: cell-based
DETAILS: MiaPaca-2 cell proliferation, read-out: MiaPaca-2 Combo (1) IC50
pIC50: −log10 of the molar value.
Please respond with reported pIC50 for every item in the list.

Sample records with pIC50:
Exercise: Miapaca-2 cells / pIC50 / CCOc1cc(-c2cc(NC(=O)c3ccnc(C(F)(F)F)c3)ccc2C)cc(-c2ccnc(NC(=O)C3CC3)c2)n1 : value?
Solution: 6.30 to 7.00

Exercise: Let us now turn to Cc1ccc(NC(=O)c2ccnc(C(C)(C)F)c2)cc1-c1cc(-c2ccnc(NC(=O)C3CC3)c2)cnn1
Solution: ≥ 7.00

Exercise: Let us now turn to CNC(=O)c1cc(-c2cncc(-c3cc(NC(=O)c4ccnc(C(F)(F)F)c4)ccc3C)n2)ccn1
Solution: 6.30 to 7.00

Look up pIC50 for the entries below, preserving their order.
1. COC(=O)Nc1cc(-c2nccc(-c3cc(NC(=O)c4ccnc(C(C)(C)F)c4)c(F)cc3C)n2)ccn1
2. CNC(=O)c1cc(-c2cc(-c3cc(C(=O)Nc4ccnc(C(C)(C)C#N)c4)ccc3C)ccn2)ccn1
3. Cc1ccc(NC(=O)c2ccnc(C(C)(C)C#N)c2)cc1-c1cccc(-c2ccnc(NC(=O)C3CC3)c2)c1
4. COCC(=O)Nc1cc(-c2nccc(-c3cc(NC(=O)c4ccnc(C(C)(C)C#N)c4)ccc3C)n2)ccn1
5. CNC(=O)c1cc(-c2cc(-c3cc(NC(=O)COCC4CC4)ccc3C)ccn2)ccn1
6. CNC(=O)c1cc(-c2cc(-c3cc(NC(=O)c4ccnc(C(F)(F)F)c4)ccc3C)cc(C3CC3)n2)ccn1
7. Cc1ccc(NC(=O)c2ccnc(C(C)(C)C#N)c2)cc1-c1cnnc(-c2ccnc(NC(=O)C3CC3)c2)c1
8. Cc1ncc(NC(=O)c2ccnc(C(C)(C)C#N)c2)cc1-c1cccc(-c2ccnc(NC(=O)C3CC3)c2)c1

Solution:
≥ 7.00
≥ 7.00
≥ 7.00
≥ 7.00
5.00 to 6.00
6.00 to 6.30
≥ 7.00
≥ 7.00

* * *

TEST_SYSTEM: B-Raf (V600E) (SEQ. ID NO: 4) kinase (Homo sapiens (Human), UniProt P15056, V600E)
Sequence (P15056 416-766 V600E): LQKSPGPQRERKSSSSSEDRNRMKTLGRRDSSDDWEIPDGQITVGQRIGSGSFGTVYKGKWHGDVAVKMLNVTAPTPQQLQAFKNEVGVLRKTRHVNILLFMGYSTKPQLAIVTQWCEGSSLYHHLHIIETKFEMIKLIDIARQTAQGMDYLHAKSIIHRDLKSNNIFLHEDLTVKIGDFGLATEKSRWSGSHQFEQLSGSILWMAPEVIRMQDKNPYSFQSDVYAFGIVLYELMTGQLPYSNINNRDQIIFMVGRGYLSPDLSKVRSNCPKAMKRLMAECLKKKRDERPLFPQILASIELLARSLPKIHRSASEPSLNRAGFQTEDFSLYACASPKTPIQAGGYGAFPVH
ASSAY_COMMENT: Biochemical Assay for B-Raf (V600E) (1)
DETAILS: Table J, BRAF V600E, biochemical assay (1); read-out: BRAF VE (1)
MEASURED_PARAMETER: IC50

Sample records with IC50:
Exercise: What does the data say about its IC50? Entry: COC(=O)Nc1cc(-c2cnnc(-c3cc(NC(=O)c4ccnc(C(C)(C)F)c4)ccc3C)c2)ccn1
Solution: ≤ 100 nM

Exercise: Let us now turn to Cc1ccc(NC(=O)c2ccnc(C(C)(C)C#N)c2)cc1-c1cncc(-c2cc(N)ncn2)c1
Solution: ≤ 100 nM

Exercise: Let us now turn to Cc1ccc(NC(=O)[C@H]2CCO[C@H](C(C)C)C2)cc1-c1cc(-c2ccnc(NC(=O)C3CC3)c2)cnn1
Solution: 100 to 500 nM

Look up IC50 for the entries below, preserving their order.
1. Cc1ncc(NC(=O)c2ccnc(C(C)(C)F)c2)cc1-c1cncc(-c2ccnc(NC(=O)C3CC3)c2)c1
2. COC(=O)Nc1cc(-c2cncc(-c3cc(NC(=O)c4ccnc(C(C)(C)F)c4)ccc3C)c2)ncn1
3. Cc1ccc(NC(=O)c2cc(C3CC3)on2)cc1-c1cncc(-c2cc(NC(=O)C3CC3)ncn2)c1
4. CNC(=O)c1cc(-c2cc(-c3cc(NC(=O)c4ccnc(C(C)(C)C#N)c4)ccc3OC)ccn2)ccn1
5. COC(=O)Nc1cc(-c2cccc(-c3cc(NC(=O)c4ccnc(C(C)(C)F)c4)cnc3C)c2)ncn1
6. COC(=O)Nc1cc(-c2cccc(-c3cc(NC(=O)c4ccnc(C(C)(C)F)c4)cnc3C)c2)ccn1
7. Cc1ccc(NC(=O)[C@H]2CCO[C@@H](C(C)C)C2)cc1-c1cc(-c2ccnc(NC(=O)C3CC3)c2)cnn1

Solution:
1: ≤ 100 nM; 2: ≤ 100 nM; 3: ≤ 100 nM; 4: ≤ 100 nM; 5: ≤ 100 nM; 6: ≤ 100 nM; 7: 100 to 500 nM

* * *

System: H2405 cells
ASSAY_COMMENT: H2405 Cell Proliferation Assay (1)
Type: cell-based
DETAILS: Homo sapiens, NCI-H2405
MEASURED_PARAMETER: IC50

Exercise: What does the data say about its IC50? Entry: Cc1ncc(NC(=O)c2ccnc(C3CC3)c2)cc1-c1cccc(-c2ncnc3[nH]ncc23)c1 [Example 131]
Solution: 1000 to 10000 nM

Exercise: Let us now turn to Cc1ccc(NC(=O)c2ccnc(C(C)(C)C#N)c2)cc1-c1cc(-c2ccnc3[nH]ccc23)cnn1 [Example 369]
Solution: 500 to 1000 nM

Exercise: Let us now turn to CCOc1ncc(-c2cc(NC(=O)c3ccnc(C(F)(F)F)c3)ccc2C)cc1-c1ccnc(NC(=O)C2CC2)c1 [Example 71]
Solution: 100 to 500 nM

Exercise: Let us now turn to Cc1ccc(NC(=O)c2ccnc(C(C)(C)C#N)c2)cc1-c1cccc(-c2ccnc3[nH]ccc23)c1 [Example 133]
Solution: 500 to 1000 nM

Exercise: Let us now turn to Cc1ccc(NC(=O)c2ccnc(C3CC3)c2)cc1-c1cccc(-c2cc(NC(=O)C3CC3)ncn2)c1 [Example 255]
Solution: 100 to 500 nM

Look up IC50 for the entries below, preserving their order.
1. Cc1ncc(NC(=O)c2cnnc(C3CC3)c2)cc1-c1nccc(-c2ccnc(NC(=O)C3CC3)c2)n1 [Example 294]
2. CCOc1ncc(-c2cc(NC(=O)c3ccnc(C(F)(F)F)c3)ccc2C)cc1-c1ccnc(C(=O)NC)c1 [Example 69]

Solution:
1. 100 to 500 nM
2. 100 to 500 nM

* * *

Please respond with reported IC50 for every item in the list.
TEST_SYSTEM: B-Raf kinase (SEQ. ID NO: 2) (Homo sapiens (Human), UniProt P15056)
Sequence (P15056 416-766): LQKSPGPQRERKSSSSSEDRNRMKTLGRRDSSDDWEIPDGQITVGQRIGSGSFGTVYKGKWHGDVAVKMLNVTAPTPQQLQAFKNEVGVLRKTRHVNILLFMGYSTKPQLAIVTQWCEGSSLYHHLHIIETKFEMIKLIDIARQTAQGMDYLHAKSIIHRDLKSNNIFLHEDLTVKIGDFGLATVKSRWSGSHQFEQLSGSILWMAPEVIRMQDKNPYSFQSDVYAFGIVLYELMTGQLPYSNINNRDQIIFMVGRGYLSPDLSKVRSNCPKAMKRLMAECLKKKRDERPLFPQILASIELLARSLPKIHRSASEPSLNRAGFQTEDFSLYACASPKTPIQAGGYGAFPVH
ASSAY_COMMENT: Biochemical Assay for B-Raf (1)
DETAILS: Table J, assay version (1); read-out: BRAF (1) IC50

Exercise: What does the data say about its IC50? Entry: Cc1ncc(NC(=O)c2ccnc(C3CC3)c2)cc1-c1cccc(-c2cc(NC(=O)C3CC3)ncn2)c1 [Example 291]
Solution: ≤ 100 nM

Exercise: Let us now turn to CC(=O)Nc1cc(-c2nccc(-c3cc(NC(=O)c4cc(C(F)(F)F)ccn4)ccc3C)n2)ccn1 [Example 153]
Solution: ≤ 100 nM

Exercise: Let us now turn to CC(C)(C#N)c1cc(C(=O)Nc2ccc(C#N)c(-c3cccc(-c4cc(NC(=O)C5CC5)ncn4)c3)c2)ccn1 [Example 240]
Solution: 100 to 500 nM

Exercise: Let us now turn to Cc1ncc(NC(=O)CN2CCOCC2)cc1-c1cccc(-c2cc(NC(=O)C3CC3)ncn2)c1 [Example 353]
Solution: 1000 to 10000 nM

Exercise: Let us now turn to Cc1cc(-c2cc(NC(=O)C3CC3)ncn2)cc(-c2cc(NC(=O)c3ccnc(C(C)(C)C#N)c3)ccc2C)c1 [Example 212]
Solution: ≤ 100 nM

Exercise: Let us now turn to CC(=O)Nc1cc(-c2cncc(-c3cc(NC(=O)c4ccnc(C(F)(F)F)c4)ccc3C)n2)ccn1 [Example 29]
Solution: ≤ 100 nM

Continuing:
Exercise: What does the data say about its IC50? Entry: CC(=O)Nc1cc(-c2cncc(-c3cc(NC(=O)c4ccnc(C5CC5)c4)ccc3C)n2)ccn1 [Example 145]
Solution: ≤ 100 nM
